The measurements presented in this section are drawn from paper PMC11965660.

Assay: Pharmacokinetic analysis in plasma and brain
Type: in vivo
Conditions: male, mouse; brain, 30 mg/kg oral, C57BL/6J mice
MEASURED PROPERTY: half-life

COMPOUND | MEASURED VALUE
CC(C)=CCc1c(O)ccc(C(=O)/C=C/c2ccc(O)cc2)c1O [IBC, isobavachalcone] | 1.8 h

* * *

Assay: Pharmacokinetic analysis in plasma and brain
Assay type: in vivo
Settings: male, mouse; blood plasma, 30 mg/kg oral, C57BL/6J mice
MEASURED PROPERTY: half-life (h)

STRUCTURE STRING | MEASURED PROPERTY | UNIT NAME | MEASURED VALUE
CC(C)=CCc1c(O)ccc(C(=O)/C=C/c2ccc(O)cc2)c1O | half-life | h | 5.6
